# Tested on: A2780/CP70 ovarian carcinoma cells
# ASSAY TEXT: MTS cell proliferation assay, sensitization to cisplatin or oxaliplatin after oligonucleotide transfection
# SETUP CONDITIONS: A2780/CP70 cells transfected with oligonucleotide, three days in drug, MTS assay
MEASURED ENDPOINT: reduction of the ID50 of cisplatin

5′(2037)-d(GGTGACAGCAGCATTTGGAT)-3′ (DNA, backbone not given here) [HYB 969]    70%
5′(750)-d(GGTCCATACTCATGTTGATG)-3′ (DNA, backbone and methylation of C not given here) [HYB 963]    about 25%
5′(1110)-d(CTGACCTACCACTTCTGCAC)-3′ [HYB 964]    about 25%
5′-(3212)-d(GGAACATCATGGTCTGCTCC)-3′ [HYB 971]    70%

src = patent US20060052319A9
